This collection of values is drawn from paper PMC10861593.

- targetSystem: T1, His-SRC protein, Src (G85-L536) (human, UniProt P12931 85-536)
- T1 construct: human Src, G85-L536, in pFastBac HT B; In the SPR it is called 'SRC protein'; removal of the tag is not mentioned; source: Sf9 (Bac-to-Bac baculovirus), purified; not shown: His6, N-terminal, kept
- assayRemarks: SPR; Biacore T200, SRC protein immobilised on CM5 by amine coupling (64 ug/mL, pH 5.0, acetate); 25 °C, 30 µl/minute, PBS with 0.05% Tween-20; kinetics analysis, 1:1 model
- measurementSetup: both partners purified
# Kd listing for each entry below
Answer with a number only, understood to be in µM.

[
  {
    "binder": "AFRRVCPCAPRR (peptide, UniProt Q969F8 333-344, looked up, source: synthetic peptide (GL Biochem)) [GPR54^333–344 (N-terminal half of the PR motif)]",
    "Kd [µM]": 28.3
  }
]

Let us examine a further case.
Asked: Endpoint output: Kd of RVCPCAPRRPRRPRRPGPSDP (peptide, UniProt Q969F8 336-356, looked up, human GPR54 (KiSS1R), residues 336-356 of the PR motif; source: synthetic peptide (GL Biochem)) [peptide of GPR54^336–356] . Value?
Given back: 4.24
